Would you mind telling me the reported EC50 of each entry?
Target: T1, full-length mouse TF with a C-terminal FLAG tag on Flp-In-CHO cells (mouse, UniProt P20352 29-294)
T1 construct: also called CHO-mTF; mouse TF-positive CHO cells
Assay: flow cytometry, antibody titration on CHO cells expressing mouse TF, 4-parameter fit of MFI
Numeric answer only, unit nM assumed.

Query: EC50; subject: 25A (antibody, human IgG1, V domains shown, Human IgG1; also called antibody designated 25A) VH: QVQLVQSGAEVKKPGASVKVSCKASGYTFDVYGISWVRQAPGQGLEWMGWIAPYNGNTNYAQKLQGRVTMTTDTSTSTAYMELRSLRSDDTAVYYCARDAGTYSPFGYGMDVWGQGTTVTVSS VL: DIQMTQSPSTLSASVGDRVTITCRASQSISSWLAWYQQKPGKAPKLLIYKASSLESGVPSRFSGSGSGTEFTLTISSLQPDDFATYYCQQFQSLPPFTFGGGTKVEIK
455

Moving on to 25G (antibody, human IgG1, V domains shown, Human IgG1; also called antibody designated 25G) VH: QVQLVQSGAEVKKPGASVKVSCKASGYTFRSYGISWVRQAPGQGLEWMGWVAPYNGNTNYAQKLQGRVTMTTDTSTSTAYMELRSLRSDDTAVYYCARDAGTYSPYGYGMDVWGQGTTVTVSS VL: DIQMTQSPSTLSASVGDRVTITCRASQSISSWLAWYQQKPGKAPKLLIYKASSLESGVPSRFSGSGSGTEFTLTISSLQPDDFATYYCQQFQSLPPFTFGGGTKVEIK
3.9
